Ref: the supplement of paper PMC3334620

Test System: Stb5 (UniProt P38699)
Sequence: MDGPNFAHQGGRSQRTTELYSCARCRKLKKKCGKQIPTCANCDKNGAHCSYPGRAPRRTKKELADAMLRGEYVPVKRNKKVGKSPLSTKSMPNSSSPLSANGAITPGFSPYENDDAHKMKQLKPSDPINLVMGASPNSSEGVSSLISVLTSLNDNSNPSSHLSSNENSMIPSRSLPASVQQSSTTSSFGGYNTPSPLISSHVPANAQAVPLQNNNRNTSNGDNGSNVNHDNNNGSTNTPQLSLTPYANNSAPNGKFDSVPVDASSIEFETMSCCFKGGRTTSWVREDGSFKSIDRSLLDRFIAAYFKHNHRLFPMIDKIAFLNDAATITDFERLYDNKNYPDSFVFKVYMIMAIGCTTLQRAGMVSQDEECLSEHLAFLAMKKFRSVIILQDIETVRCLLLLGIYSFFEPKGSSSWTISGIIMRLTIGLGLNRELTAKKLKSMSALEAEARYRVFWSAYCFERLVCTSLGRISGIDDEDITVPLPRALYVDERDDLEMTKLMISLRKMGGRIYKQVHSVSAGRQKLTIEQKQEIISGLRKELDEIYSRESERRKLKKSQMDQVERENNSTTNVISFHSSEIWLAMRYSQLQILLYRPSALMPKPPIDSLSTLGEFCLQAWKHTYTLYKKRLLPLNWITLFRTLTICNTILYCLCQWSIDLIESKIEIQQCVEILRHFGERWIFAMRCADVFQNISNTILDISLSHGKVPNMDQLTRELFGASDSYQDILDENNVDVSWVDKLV
Run Description: PBM E-score (8-mer binding enrichment) (E-score (-0.5 to 0.5)); higher = stronger / more preferred TF binding
Protocol Conditions: protein concentration: 200 nM; construct: GST-full length
The full ranking holds about 33,000 sequences; the median of “E-score (-0.5 to 0.5)” is about -0.054, and the highest 2% start at about 0.35. The sample holds the highest values, similar sequences and a random draw of the others, so the mix is not that of the screen.

Sequence String	PBM E-score
ATGCCGCG	0.319
ATACACCC	0.254
CACCGGCA	0.377
GGGTACTA	-0.0611
CTTGCCAC	-0.0929
CAACACCG	0.408
AACTTCTT	-0.0358
AAAGCGGG	0.297
AAAAGGGT	-0.27
CGACACCC	0.0971
CAACACCC	-0.206
CCGCCGCG	0.363
AACCGCCT	0.0427
CGGCCATC	0.157
CCCGTTTA	0.188
GCACCACA	-0.0487
CACTGCAA	-0.139
CGCCAGTC	0.131
CATGACCA	-0.378
TACCCACA	-0.228
GCGGTGAA	0.345
AACCTCCT	-0.234
TATCCTAA	-0.109
ATGCCGCC	0.423
CGGTCTCA	0.376
CGGTCCGC	0.298
ACGGTGCA	0.127
AGGGGCTA	-0.0747
GGGGTATA	0.26
CCGCCGCA	0.301
GGGGGCTA	0.0408
CCGCGCCG	0.288
CCGGAGCC	0.182
CGGGGCTA	0.454
GATAGGTA	-0.0734
AACCTCCG	0.408
CTTCCCCA	-0.184
CACCGGCG	0.417
AAGGTGCT	-0.0966
CGACACCG	0.371
CCGGTGTA	0.366
ACCGTCTC	0.0885
ACCCCGCA	0.382
CACCGGCC	0.318
ATACCTAG	-0.233
AGGTACTA	0.16
CCCCCGCA	0.154
GTAAGATA	0.0697
CTTCAAAG	-0.124
CAAGCGGC	0.379
AACCCGCA	0.229
CGGTCCTA	0.448
CAACACCA	-0.1
CAGCCGCG	0.0138
GGGCCATA	0.0906
ACGCGCCT	0.013
CCCCGAGG	0.148
AACCGGCG	0.313
AAATGCTA	-0.223
CGGCCATA	0.376
TGGTACCA	-0.0919
CCCCGACA	0.412
AACCTTCC	-0.135
CGGGGTAA	0.424
ACACACCT	-0.0405
ACTGTGCT	-0.241
GCCCGACC	0.306
AGGTCCGC	0.425
AAGCGCCG	0.396
AGGCCGCC	0.324
CATCCATG	-0.205
AAGCGCCA	-0.0397
CACAAAAG	0.0345
ATACCAGA	-0.177
AGGTCCTA	0.0577
CAAGCGGA	0.223
AAGCCGCC	0.245
GGGCCCTA	-0.0134
CCTCCTAG	-0.267
TGACGCAA	-0.174
AGCGAGTC	-0.132
ATTCGCCC	0.125
GGGGTGAC	0.0132
CGGGTCTC	0.151
TCCCGACA	0.291
CGGGTATA	0.403
GAGAGTGA	-0.349
CGATAACC	0.16
ACGGTGAG	0.141
GCGGTGAC	0.358
CCTGCTAG	-0.0487
